- TEST_SYSTEM: PDK1 (Homo sapiens)
- Construct: GST
- TEST_SUMMARY: cell-free kinase activity assay (ATPgamma[32P], T308tide substrate)
- Assay type: biochemical
- EXPERIMENTAL_CONDITIONS: maximum activation achievable, compared to the basal activity of PDK1; n.e.: no effect
- Method: Principle of the cell-free kinase activity assay: In general, the activity of the compounds as protein kinase inhibitors or activators may be assayed in vitro (cell free assay is meant here), in vivo or in a cell line. […] Alternate in vitro assays quantitate the ability of the inhibitor to bind to the protein kinase. […] Alternatively, inhibitor or activator binding may be determined by running a competition experiment where new compounds are incubated with the protein kinase bound to known radioligands. […]

# COMPOUND, TEST_SYSTEM, max. activation of PDK1 (fold)
measured = [
    ("O=C(O)/C=C(/CCc1ccc(Cl)c(Cl)c1)c1ccccc1", "PDK1 (Homo sapiens)", "3.4 fold"),
    ("O=C(O)C=C(c1ccccc1)c1cc2cc(Cl)ccc2o1 (mixture of isomers)", "PDK1 (Homo sapiens)", "3.2 fold"),
    ("CCc1ccc(CC/C(=C/C(=O)O)c2ccccc2)cc1", "PDK1 (Homo sapiens)", "1.4 fold"),
    ("O=C(O)/C=C(\\CCc1ccc(Br)cc1)c1ccccc1", "PDK1 (Homo sapiens)", "2 fold"),
    ("Cc1ccc2oc(C(=CC(=O)O)c3ccccc3)cc2c1 (mixture of isomers)", "PDK1 (Homo sapiens)", "3.1 fold"),
    ("CCc1ccc(CC/C(=C\\C(=O)O)c2ccccc2)cc1", "PDK1 (Homo sapiens)", "1.5 fold"),
    ("O=C(O)/C=C(\\CCc1cccc(Cl)c1)c1ccccc1", "PDK1 (Homo sapiens)", "2 fold"),
    ("O=C(O)/C=C(/CCc1ccc(C(F)(F)F)cc1)c1ccccc1", "PDK1 (Homo sapiens)", "4.7 fold"),
    ("O=C(O)/C=C(/CCc1ccc(F)cc1)c1ccccc1", "PDK1 (Homo sapiens)", "3.3 fold"),
]

###

- TEST_SYSTEM: PDK1 (Homo sapiens)
- Construct: GST
- Sequence (O15530 1-556): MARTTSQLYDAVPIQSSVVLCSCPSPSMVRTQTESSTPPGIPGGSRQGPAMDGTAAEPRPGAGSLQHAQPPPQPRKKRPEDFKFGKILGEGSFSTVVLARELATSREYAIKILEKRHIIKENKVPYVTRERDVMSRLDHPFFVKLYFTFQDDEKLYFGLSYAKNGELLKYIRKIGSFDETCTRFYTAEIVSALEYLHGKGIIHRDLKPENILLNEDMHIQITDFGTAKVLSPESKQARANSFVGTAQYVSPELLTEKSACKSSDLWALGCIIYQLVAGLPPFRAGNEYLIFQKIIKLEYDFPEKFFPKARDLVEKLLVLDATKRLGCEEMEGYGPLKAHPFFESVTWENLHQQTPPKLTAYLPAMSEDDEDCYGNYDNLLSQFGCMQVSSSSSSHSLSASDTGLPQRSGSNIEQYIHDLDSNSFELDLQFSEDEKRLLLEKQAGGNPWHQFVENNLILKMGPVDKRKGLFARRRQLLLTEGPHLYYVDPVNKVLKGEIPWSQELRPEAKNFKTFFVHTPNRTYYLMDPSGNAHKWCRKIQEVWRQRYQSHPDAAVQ
- TEST_SUMMARY: cell-free kinase activity assay (ATPgamma[32P], T308tide substrate)
- Assay type: biochemical
- EXPERIMENTAL_CONDITIONS: 200 μM compound; DMSO control set 100%; read-out: percent of catalytic activity of the Kinase in the presence of compound as compared to the solvent control (DMSO): PDK1
Quick list: activity at 200 µM per entry.

# COMPOUND, activity at 200 µM
data = [
    ("O=C(O)/C=C(/CCc1ccc(Br)cc1)c1ccccc1", "450%"),
    ("O=C(O)CC(Cc1nc2cc(Cl)ccc2[nH]1)c1ccc(Cl)cc1 (stereo not shown)", "500%"),
    ("O=C(O)CC(C(=O)N1CCc2ccccc2C1)c1ccc(Cl)cc1 (stereo not shown)", "310%"),
    ("O=C(O)/C=C1\\c2ccccc2CC1Cc1ccc(Cl)cc1 (stereo not shown)", "180%"),
    ("O=C(O)/C=C(/CCc1cccc(Cl)c1)c1ccccc1", "150%"),
    ("O=C(O)/C=C(/CCc1ccc(C(F)(F)F)cc1)c1ccccc1", "> 250%"),
    ("O=C(O)CC(Cc1nc2cc(Cl)c(Cl)cc2[nH]1)c1ccccc1 (stereo not shown)", "> 250%"),
    ("O=C(O)CC(CC(=O)N1Cc2ccc(Cl)cc2C1)c1ccc(Cl)cc1 (stereo not shown)", "400%"),
    ("O=C(O)CC(Cc1nc2c(Cl)cc(Cl)cc2[nH]1)c1ccc(Cl)cc1 (stereo not shown)", "~200%"),
    ("O=C(O)/C=C(\\CCc1ccc(Cl)cc1)c1ccccc1F", "~120%"),
]
